Test system: Ipomea hederaceae
experiment_summary: Example B2 herbicidal action, post-emergence, pots in glasshouse, damage score 0-10
Type: in vivo
measurement_context: application post-emergence, rate 1000 g/ha, evaluated after 13 days
Mark 1.0 only when IPOHE damage score (10=total damage to plant; 0=no damage to plant) stays strictly below 7. Values equal to the cut-off are 0.0.

Exercise: API: query returns whether the compound falls strictly under 7 in IPOHE damage score (10=total damage to plant; 0=no damage to plant). Query: C=CCN1c2nccnc2C(O)=C(c2cc(Cl)ccc2C(F)(F)F)S1(=O)=O [Compound D54]
Solution: 1.0

Exercise: Determine if CC(C)C(=O)OC1=C(c2cc(C(F)(F)F)ccc2Cl)S(=O)(=O)N(CCCl)c2nccnc21 [Compound C123] shows IPOHE damage score (10=total damage to plant; 0=no damage to plant) strictly lower than 7.
Solution: 1.0

Exercise: Problem: For the compound CC(C)(C)C(=O)OC1=C(c2c(F)ccc(-c3cccc(Cl)c3)c2Cl)S(=O)(=O)N(CC(F)F)c2nccnc21 [Compound C42] , is IPOHE damage score (10=total damage to plant; 0=no damage to plant) under 7?
Solution: 1.0

Exercise: Bench note: check whether CC(C)(C)C(=O)OC1=C(c2ccccc2I)S(=O)(=O)N(CC(F)F)c2nccnc21 [Compound C81] shows IPOHE damage score (10=total damage to plant; 0=no damage to plant) below 7
Solution: 0.0

Exercise: Determine if CCc1cc(C)cc(CC)c1C1=C(OC(=O)C(C)C)c2nccnc2N(CC(F)F)S1(=O)=O [Compound C48] shows IPOHE damage score (10=total damage to plant; 0=no damage to plant) strictly lower than 7.
Solution: 1.0

Exercise: # TODO verify IPOHE damage score (10=total damage to plant; 0=no damage to plant) < 7 strictly for this compound: CC(C)C(=O)OC1=C(c2ccc(Cl)cc2Cl)S(=O)(=O)N(CCF)c2nccnc21 [Compound C58]
Solution: 0.0

Exercise: Decide: IPOHE damage score (10=total damage to plant; 0=no damage to plant) of CCSC(=O)OC1=C(c2c(Cl)ccc(Cl)c2Cl)S(=O)(=O)N(C)c2nccnc21 [Compound C94] strictly below 7?
Solution: 0.0

Exercise: Record O=S1(=O)C(c2c(F)ccc(Cl)c2Cl)=C(O)c2nccnc2N1CC(F)F [Compound D9] : is its IPOHE damage score (10=total damage to plant; 0=no damage to plant) strictly below 7?
Solution: 0.0

Exercise: Does the reported IPOHE damage score (10=total damage to plant; 0=no damage to plant) of the following compound sit strictly below 7? CCSC(=O)OC1=C(c2cc(C(F)(F)F)ccc2Cl)S(=O)(=O)N(C)c2nccnc21 [Compound C89]
Solution: 0.0

Exercise: Hello, is IPOHE damage score (10=total damage to plant; 0=no damage to plant) of the following compound strictly smaller than 7? CC(C)(C)C(=O)OC1=C(c2c(Cl)cccc2Cl)S(=O)(=O)N(CC(F)F)c2nccnc21 [Compound C28]
Solution: 1.0

Exercise: Record CC(C)(C)C(=O)OC1=C(c2ccc(Cl)cc2Cl)S(=O)(=O)N(CC(F)(F)F)c2nccnc21 [Compound C104] : is its IPOHE damage score (10=total damage to plant; 0=no damage to plant) strictly below 7?
Solution: 0.0

Exercise: Please determine if CCN1c2nccnc2C(OC(=O)C(C)(C)C)=C(c2ccc(Cl)cc2C(F)(F)F)S1(=O)=O [Compound C15] is below 7 in terms of IPOHE damage score (10=total damage to plant; 0=no damage to plant).
Solution: 0.0

Exercise: is_below(IPOHE damage score (10=total damage to plant; 0=no damage to plant), 7) for O=S1(=O)C(c2c(F)ccc(Br)c2Cl)=C(O)c2nccnc2N1CC(F)F [Compound D14] ?
Solution: 0.0

Exercise: Dear reviewer, please state whether CC(C)C(=O)OC1=C(c2ccccc2SC(F)(F)F)S(=O)(=O)N(CC(F)F)c2nccnc21 [Compound C18] has IPOHE damage score (10=total damage to plant; 0=no damage to plant) strictly beneath 7.
Solution: 1.0

Exercise: Would you kindly verify if IPOHE damage score (10=total damage to plant; 0=no damage to plant) of CCN1c2nccnc2C(O)=C(c2cc(F)c(Cl)cc2Cl)S1(=O)=O [Compound D23] is strictly less than 7?
Solution: 0.0

Exercise: Find out if reported IPOHE damage score (10=total damage to plant; 0=no damage to plant) for CCN1c2nccnc2C(O)=C(c2cc(Cl)ccc2C(F)(F)F)S1(=O)=O [Compound D52] is less than 7
Solution: 1.0

Exercise: In the record for CCN1c2nccnc2C(OC(=O)C(C)C)=C(c2cccc(C(F)(F)F)c2Cl)S1(=O)=O [Compound C75] , is IPOHE damage score (10=total damage to plant; 0=no damage to plant) less than 7?
Solution: 1.0

Exercise: Does the reported IPOHE damage score (10=total damage to plant; 0=no damage to plant) of O=S1(=O)C(c2c(Cl)ccc(Cl)c2Cl)=C(O)c2nccnc2N1CC(F)F [Compound D17] stay below 7?
Solution: 0.0

Exercise: Identify whether the compound CSC(=O)OC1=C(c2c(Cl)ccc(Cl)c2Cl)S(=O)(=O)N(CC(F)F)c2nccnc21 [Compound C130] records IPOHE damage score (10=total damage to plant; 0=no damage to plant) below 7.
Solution: 0.0

Exercise: Say whether its IPOHE damage score (10=total damage to plant; 0=no damage to plant) is strictly beneath 7. Entry: CCN1c2nccnc2C(O)=C(c2cccc(C(F)(F)F)c2)S1(=O)=O [Compound D3]
Solution: 1.0

Exercise: Here's an entry: CCSC(=O)OC1=C(c2c(Cl)ccc(Cl)c2Cl)S(=O)(=O)N(CC)c2nccnc21 [Compound C71] . Is its IPOHE damage score (10=total damage to plant; 0=no damage to plant) below 7?
Solution: 0.0
